target.entity: hTRPV3 (Homo sapiens (Human), UniProt Q8NET8)
Sequence (Q8NET8 whole entry): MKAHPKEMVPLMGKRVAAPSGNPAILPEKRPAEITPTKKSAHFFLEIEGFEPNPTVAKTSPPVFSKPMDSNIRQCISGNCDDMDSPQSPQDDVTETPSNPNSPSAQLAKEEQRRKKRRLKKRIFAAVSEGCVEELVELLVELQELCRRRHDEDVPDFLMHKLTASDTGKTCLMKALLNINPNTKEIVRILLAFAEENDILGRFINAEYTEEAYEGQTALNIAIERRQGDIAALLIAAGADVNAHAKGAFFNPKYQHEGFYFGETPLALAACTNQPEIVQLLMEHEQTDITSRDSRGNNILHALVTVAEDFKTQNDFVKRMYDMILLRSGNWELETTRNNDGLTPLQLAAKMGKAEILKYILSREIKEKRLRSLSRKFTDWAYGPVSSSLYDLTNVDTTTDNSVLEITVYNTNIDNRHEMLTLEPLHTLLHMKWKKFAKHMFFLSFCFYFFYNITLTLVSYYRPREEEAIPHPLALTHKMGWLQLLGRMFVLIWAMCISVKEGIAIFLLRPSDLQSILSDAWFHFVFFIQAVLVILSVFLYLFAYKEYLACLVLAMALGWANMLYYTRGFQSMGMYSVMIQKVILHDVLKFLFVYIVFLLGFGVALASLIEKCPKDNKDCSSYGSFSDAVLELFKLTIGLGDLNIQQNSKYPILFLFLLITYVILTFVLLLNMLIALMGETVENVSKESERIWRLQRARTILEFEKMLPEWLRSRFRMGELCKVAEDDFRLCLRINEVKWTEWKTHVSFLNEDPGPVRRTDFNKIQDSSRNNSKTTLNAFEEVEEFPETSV
measurement.description: Whole-cell patch clamp, hTRPV3 Phase 1 / Phase 2 currents
Format: cell-based
measurement.parameters: read-out: hTRPV3 (nM) (Phase 1)
Structures can show the parent of a compound that is named as a salt.
observable: IC50 (nM)
Give the value in nM but do not write nM after it.

Inquiry: Consider the compound CC(C)c1ccccc1Oc1ccc(N2CC[C@H](Oc3ncccc3Cl)C2)c(CCO)c1 [Compound 1-327] and give its measured IC50.
Reply text: 15.9

Inquiry: What do you have for NC(=O)c1cc(Oc2ccccc2)ccc1N1CC[C@H](Oc2ccc(C(F)(F)F)cn2)C1 [Compound 1-124] ?
Reply text: 729

Inquiry: What do you have for NC(=O)c1cc(C(F)(F)F)ccc1N1CC[C@H](Oc2ccc(C(F)(F)F)cn2)C1 [Compound 1-58] ?
Reply text: 1040

Inquiry: What do you have for NC(=O)c1cc(C(=O)c2ccccc2)ccc1N1CC[C@H](Oc2ncccc2Cl)C1 [Compound 1-136] ?
Reply text: 1620

Inquiry: What do you have for NC(=O)c1cc(Cc2ccccc2)ccc1N1CC[C@H](Oc2ccc(C(F)(F)F)cn2)C1 [Compound 1-140] ?
Reply text: 710

Inquiry: What do you have for COc1ccccc1Oc1ccc(N2CC[C@H](Oc3ncccc3Cl)C2)c(CO)c1 [Compound 1-221] ?
Reply text: 159

Inquiry: What do you have for NCc1cc(-c2ccccc2)ccc1N1CC[C@@H](Oc2ccc(C(F)(F)F)cn2)C1 [Compound 1-109, hydrochloride] ?
Reply text: 1870

###

target.entity: UniProt:Q8NET8
measurement.description: Whole-cell patch clamp, hTRPV3 Phase 1 / Phase 2 currents
Type: cell-based
measurement.parameters: Phase 1 current, inward, whole-cell patch clamp; read-out: hTRPV3 Patch P1 Inwd
pIC50: −log10 of the molar value.
Could you please report measured pIC50 for the items listed next?

Inquiry: Kindly state the measured pIC50 obtained for "OCc1csc(-c2cccc(N3CC[C@H](Oc4ccc(C(F)(F)F)cn4)C3)c2)n1" with UniProt:Q8NET8.
Reply text: < 6.00

Inquiry: What do you have for NC(=O)c1cc(-c2ccccc2Cl)ccc1N1CCC(Oc2ccc3ccccc3n2)C1=O (stereo not shown) ?
Reply text: < 6.00

Inquiry: What do you have for "CCc1ccccc1-c1ccc(N2CC[C@H](Oc3ccc(C)cn3)C2)c(CO)n1" ?
Reply text: < 6.00

Inquiry: What do you have for "COc1ccccc1Oc1ccc(N2CC[C@H](Oc3ncccc3F)C2)c(CO)c1" ?
Reply text: 6.00 to 7.00

Inquiry: What do you have for Cc1cccc(C(O)c2ccc(C3CCN(C(=O)c4ncccc4Cl)C3)c(CO)c2)c1 (single isomer, unassigned) [Compound 2-8] ?
Reply text: < 6.00

Inquiry: What do you have for "CCc1ccccc1-c1ccc(N2CC[C@H](Oc3ccc(C(F)(F)F)cn3)C2)c(CO)c1" ?
Reply text: 7.00 to 8.00

Inquiry: What do you have for O=C(c1cccc(Cl)n1)N1CCC(c2ccc(-c3ccccc3C3CC3)cc2CO)C1 (stereo not shown) ?
Reply text: > 8.00

Inquiry: What do you have for COC(=O)c1cc(-c2ccccc2C(C)C)ccc1C1CCN(C(=O)c2ccc(F)cn2)C1 (stereo not shown) ?
Reply text: 6.00 to 7.00

Inquiry: What do you have for "OCc1cc(-c2ccccc2)ccc1N1CC[C@H](Oc2ccc(C(F)(F)F)cn2)C1" ?
Reply text: 7.00 to 8.00

Inquiry: What do you have for CC(O)c1cc(F)ccc1Oc1ccc(N2CC[C@H](Oc3ccccn3)C2)c(CO)c1 (stereo partly shown) ?
Reply text: < 6.00

Inquiry: What do you have for "N#Cc1ccc(N2CC[C@H](Oc3ccc(C(F)(F)F)cn3)C2)c(C(N)=O)c1" ?
Reply text: < 6.00

Inquiry: What do you have for "CC(C)(C)OC(=O)N1CCC(c2ccc(N3CC[C@H](Oc4ccc(C(F)(F)F)cn4)C3)c(CCO)c2)CC1" ?
Reply text: < 6.00

Inquiry: What do you have for CC(C)c1ccccc1Oc1ccc(C2CCN(Cc3ccc(Cl)cn3)C2)c(CO)c1 (stereo not shown) ?
Reply text: 6.00 to 7.00

Inquiry: What do you have for "N#Cc1ccc(-c2ccccc2)cc1N1CC[C@H](Oc2ccc(C(F)(F)F)cn2)C1" ?
Reply text: < 6.00

Inquiry: What do you have for "NC(=O)c1cc(-c2ccccn2)ccc1N1CC[C@@H](Oc2ncccc2Cl)C1" ?
Reply text: < 6.00

Inquiry: What do you have for O=C(c1ccc(F)cc1)c1ccc(N2CC[C@H](Oc3ncccc3Cl)C2)c(CCO)c1 [Compound 1-315] ?
Reply text: < 6.00
